Ref: patent US20120264685A1

Target: human glucagon receptor (human, UniProt P47871 26-477)
Sequence (P47871 26-477): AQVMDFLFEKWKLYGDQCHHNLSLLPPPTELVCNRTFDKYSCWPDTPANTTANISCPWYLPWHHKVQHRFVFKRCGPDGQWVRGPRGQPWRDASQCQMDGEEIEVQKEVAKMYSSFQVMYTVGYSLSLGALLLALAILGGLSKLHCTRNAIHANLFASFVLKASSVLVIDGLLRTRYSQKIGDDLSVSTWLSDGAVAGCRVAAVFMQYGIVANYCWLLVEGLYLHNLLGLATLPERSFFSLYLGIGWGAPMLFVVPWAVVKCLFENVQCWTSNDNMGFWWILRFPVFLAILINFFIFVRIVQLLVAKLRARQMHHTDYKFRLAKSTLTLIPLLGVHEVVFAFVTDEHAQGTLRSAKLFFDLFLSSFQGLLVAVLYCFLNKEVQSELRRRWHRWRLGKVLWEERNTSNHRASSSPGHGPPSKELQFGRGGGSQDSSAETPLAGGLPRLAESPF
Assay: cell-based or functional assay
Where no end group is shown, it is not given here. [ ]: non-standard residue; d: D form. αMePhe(2,6-F2) = C[C@](N)(Cc1c(F)cccc1F)C(=O)O; αMePhe(2-F) = C[C@](N)(Cc1ccccc1F)C(=O)O; αMeBip(OMe) = alpha-methylated Bip(OMe); hhPhe = N[C@@H](CCCc1ccccc1)C(=O)O; αMeD = C[C@](N)(CC(=O)O)C(=O)O; αMeP = C[C@@]1(C(=O)O)CCCN1; αMeAPPA = not defined here; αMeS = C[C@](N)(CO)C(=O)O; Aib = CC(C)(N)C(=O)O
measured-metric: cAMP production (pmol/ml/µg prt) with saturated glucagon peptide, at 10 nM

Below, 4 binders whose answers are already recorded.
binder: VHAEGT[αMePhe(2-F)]TS[αMeD][αMeBip(OMe)][hhPhe]-NH2 [Seq. ID. No. 70]
observed-value: 0 pmol/ml/µg prt
--
binder: VVH[αMeP]QGTFTSD[αMeBip(OMe)][hhPhe] (not fully specified (C-terminus); printed as VVH-(αMe-Pro)-QGTFTSD-(αMe-Bip(OMe))-(APPA)) [Seq. ID. No. 208]
observed-value: 2 pmol/ml/µg prt
--
binder: VH[αMeP]QGT[αMePhe(2-F)]T[αMeS]D[αMeBip(OMe)][hhPhe]-NH2 [Seq. ID. No. 44]
observed-value: 3 pmol/ml/µg prt
--
binder: VH[αMeP]EGT[αMePhe(2,6-F2)]TS[αMeD][αMeBip(OMe)][αMeAPPA] (not fully specified (C-terminus); reading uncertain) [Seq. ID. No. 204]
observed-value: 6 pmol/ml/µg prt

### Prompt Need cAMP production (pmol/ml/µg prt) with saturated glucagon peptide, at 10 nM, item VH[Aib]QGT[αMePhe(2-F)]T[αMeS]D[αMeBip(OMe)][αMeAPPA] (not fully specified (C-terminus); reading uncertain) [Seq. ID. No. 167]
### Response 6 pmol/ml/µg prt
